Assay: RP, Merck Supelco SUPELCOSIL LC-C18, 250 × 4.6 mm, 5 µm, 40 °C, 1 mL/min, estimated dead time 2.6 min; A: water + 0.1% trifluoroacetic acid, pH 2; B: acetonitrile + 0.1% trifluoroacetic acid, pH 2; gradient (min/%B) 0/5 45/35 47/75 49/35 50/5
Conditions: stereoisomer not certain
Please enter MET where LC retention time is greater than or equal to 20 min, and NOT MET where it is lower.

1. O=C(OC1Cc2c(O)cc(O)cc2OC1c1cc(O)c(O)c(O)c1)c1cc(O)c(O)c(O)c1 (single isomer, unassigned; (-)) [(-)-Epigallocatechin gallate] = NOT MET
2. O=c1c(-c2ccc(O)cc2)coc2cc(O)ccc12 = MET
3. O=C(C=Cc1ccc(O)c(O)c1)OC(Cc1ccc(O)c(O)c1)C(=O)O (centres undefined) = MET
4. COc1cc(C=CC(=O)O)cc(OC)c1O = MET
5. O=C(O)C=Cc1ccc(O)cc1 = NOT MET
6. COc1cc(/C=C/C(=O)O)ccc1O = MET
7. O=C(O)C1OC(Oc2c(-c3ccc(O)c(O)c3)oc3cc(O)cc(O)c3c2=O)C(O)C(O)C1O (centres undefined) [Quercetin-3-O-glucuronide] = MET
8. CC1OC(Oc2c(-c3ccc(O)c(O)c3)oc3cc(O)cc(O)c3c2=O)C(O)C(O)C1O (centres undefined) = MET
9. OCC1OC(Oc2cc3c(O)cc(O)cc3[o+]c2-c2ccc(O)cc2)C(O)C(O)C1O (centres undefined) [Pelargonidin-3-O-glucoside] = MET
10. O=C(C=Cc1ccc(O)c(O)c1)OC1CC(OC(=O)C=Cc2ccc(O)c(O)c2)(C(=O)O)CC(O)C1O (centres undefined) = NOT MET
11. CC1OC(OCC2OC(Oc3c(-c4ccc(O)c(O)c4)oc4cc(O)cc(O)c4c3=O)C(O)C(O)C2O)C(O)C(O)C1O (centres undefined) = MET
12. Oc1cc(O)c2cc(O)c(-c3ccc(O)c(O)c3)[o+]c2c1 = MET
13. O=c1c(O)c(-c2ccc(O)c(O)c2)oc2cc(O)ccc12 = MET
14. COc1ccc(C2CC(=O)c3c(O)cc(OC4OC(COC5OC(C)C(O)C(O)C5O)C(O)C(O)C4O)cc3O2)cc1O (centres undefined) = MET
